Reference for the values: patent US12357605B2

Ratio of activated muscle satellite cells, Mean values for the compounds below.
# System: muscle satellite cells
# Method Summary: Evaluation of muscle satellite cell activating effect (ratio of BrdU positive cells)
# Type: cell-based, SD rat
# Recorded Conditions: 100 ng/mL, 24 hours culture, BrdU positive cells / total cells; solvent control 41.3%
Metric: Ratio of activated muscle satellite cells, Mean (%)

compound="Oc1cc(O)c2c(c1)O[C@@H](c1ccc(O)c(O)c1)[C@H](O)C2 [Catechin, catechin, reference compound]" readout_number=42.1
compound="O=C(O[C@@H]1COC(=O)c2cc(O)c(O)c(O)c2-c2c(cc(O)c(O)c2O)C(=O)O[C@H]1[C@@H]1OC(=O)c2cc(O)c(O)c(O)c2-c2c(O)c(O)c(O)c3c2C(=O)O[C@H]1C3O)c1cc(O)c(O)c(O)c1 (stereo partly shown) [Casuarinin, casuarinin]" readout_number=50.8
compound="O=C(O)c1cc(O)c(O)c(O)c1 [Gallic acid, gallic acid, reference compound]" readout_number=37.8
compound="O=c1oc2c(O)c(O)cc3c(=O)oc4c(O)c(O)cc1c4c23 [Ellagic acid, ellagic acid, reference compound]" readout_number=38.3
